assay: Rat pharmacokinetics, intravenous dosing; format: in vivo, Sprague-Dawley rats; conditions: male, Sprague-Dawley; rat plasma, 1 mg/kg IV (0.5 mg/mL)
Measured Endpoint: Cmax (ng/mL)

Molecule: N#Cc1ccc(COc2cccc(C3CCN(Cc4nc5ccc(C(=O)O)cc5n4Cc4cncs4)CC3)n2)c(F)c1
Readout Number: 596
//
Molecule: N#Cc1ccc(COc2cccc(C3CCN(Cc4nc5ccc(C(=O)O)cc5n4C[C@@H]4CCO4)CC3)n2)c(F)c1 [Reference Compound A, reference compound]
Readout Number: 486

---

# MRT inf per record follows
experiment: Pharmacokinetics in hGLP-1R mice after oral dosing; assay type: in vivo, male C57BL/6J hGLP-1R mouse; conditions: male, C57BL/6J hGLP-1R, mouse, plasma, po, 1 mg/kg, hGLP-1R mouse plasma, PO 1 mg/kg, mean; read-out: MRT0-inf
Measured Endpoint: MRT inf (h)

Compound: N#Cc1ccc(COc2cccc(C3CCN(Cc4nc5ccc(C(=O)O)cc5n4C[C@@H]4CCO4)CC3)n2)c(F)c1 [Reference Compound A, reference compound]
Measured Endpoint: MRT inf
Readout Number: 2.68
//
Compound: N#Cc1ccc(COc2cccc(C3CCN(Cc4nc5ccc(C(=O)O)cc5n4Cc4cncs4)CC3)n2)c(F)c1
Measured Endpoint: MRT inf
Readout Number: 1.57

---

test: Pharmacokinetics in hGLP-1R mice after oral dosing; type: in vivo, male C57BL/6J hGLP-1R mouse; details: male, C57BL/6J hGLP-1R, mouse, plasma, po, 3 mg/kg, hGLP-1R mouse plasma, PO 3 mg/kg, 8 h; read-out: Mean Concentration

Compound: N#Cc1ccc(COc2cccc(C3CCN(Cc4nc5ccc(C(=O)O)cc5n4Cc4cncs4)CC3)n2)c(F)c1 [Compound 2]
Unit Info: ng/mL
concentration at 8 h: 47.5

---

assay: Pharmacokinetics in hGLP-1R mice after oral dosing; format: in vivo, male C57BL/6J hGLP-1R mouse; conditions: male, C57BL/6J hGLP-1R, mouse, plasma, po, 3 mg/kg, hGLP-1R mouse plasma, PO 3 mg/kg, 1 h; read-out: Mean Concentration

Structure Smiles String: N#Cc1ccc(COc2cccc(C3CCN(Cc4nc5ccc(C(=O)O)cc5n4Cc4cncs4)CC3)n2)c(F)c1
concentration at 1 h: 990 ng/mL

---

experiment: Rat pharmacokinetics, oral dosing; type: in vivo, Sprague-Dawley rats; settings: male, Sprague-Dawley, rat, plasma, po, 3 mg/kg, rat plasma, 3 mg/kg PO (0.6 mg/mL)
# Cmax per record follows

Compound: N#Cc1ccc(COc2cccc(C3CCN(Cc4nc5ccc(C(=O)O)cc5n4C[C@@H]4CCO4)CC3)n2)c(F)c1 [Reference Compound A, reference compound]
Unit Info: ng/mL
Cmax: 102

Compound: N#Cc1ccc(COc2cccc(C3CCN(Cc4nc5ccc(C(=O)O)cc5n4Cc4cncs4)CC3)n2)c(F)c1 [Compound 2]
Unit Info: ng/mL
Cmax: 491

Compound: O=C(O)c1ccc2nc(CN3CC[C@@]4(c5cccc(OCc6ccc(Cl)cc6F)n5)C[C@H]4C3)n(Cc3cncs3)c2c1 [Compound 25]
Unit Info: ng/mL
Cmax: 412

Compound: N#Cc1cnc(COc2cccc(C3CCN(Cc4nc5ccc(C(=O)O)cc5n4Cc4cncs4)CC3)n2)c(F)c1 [Compound 29]
Unit Info: ng/mL
Cmax: 299

Compound: [2H]C([2H])(Oc1cccc(C2CCN(Cc3nc4ccc(C(=O)O)cc4n3Cc3cncs3)CC2)n1)c1ccc(C#N)cc1F [Compound 27]
Unit Info: ng/mL
Cmax: 478

Compound: N#Cc1ccc(COc2cccc(C34CCN(Cc5nc6ccc(C(=O)O)cc6n5Cc5cncs5)CC3C4)n2)c(F)c1 (stereo not drawn) [Compound 14]
Unit Info: ng/mL
Cmax: 581
